// values below are reported pIC50
# Measured On: hGYS1 enzyme (recombinant hGYS1/GN1 protein) (Homo sapiens (Human), UniProt P13807)
# Sequence (P13807 whole entry): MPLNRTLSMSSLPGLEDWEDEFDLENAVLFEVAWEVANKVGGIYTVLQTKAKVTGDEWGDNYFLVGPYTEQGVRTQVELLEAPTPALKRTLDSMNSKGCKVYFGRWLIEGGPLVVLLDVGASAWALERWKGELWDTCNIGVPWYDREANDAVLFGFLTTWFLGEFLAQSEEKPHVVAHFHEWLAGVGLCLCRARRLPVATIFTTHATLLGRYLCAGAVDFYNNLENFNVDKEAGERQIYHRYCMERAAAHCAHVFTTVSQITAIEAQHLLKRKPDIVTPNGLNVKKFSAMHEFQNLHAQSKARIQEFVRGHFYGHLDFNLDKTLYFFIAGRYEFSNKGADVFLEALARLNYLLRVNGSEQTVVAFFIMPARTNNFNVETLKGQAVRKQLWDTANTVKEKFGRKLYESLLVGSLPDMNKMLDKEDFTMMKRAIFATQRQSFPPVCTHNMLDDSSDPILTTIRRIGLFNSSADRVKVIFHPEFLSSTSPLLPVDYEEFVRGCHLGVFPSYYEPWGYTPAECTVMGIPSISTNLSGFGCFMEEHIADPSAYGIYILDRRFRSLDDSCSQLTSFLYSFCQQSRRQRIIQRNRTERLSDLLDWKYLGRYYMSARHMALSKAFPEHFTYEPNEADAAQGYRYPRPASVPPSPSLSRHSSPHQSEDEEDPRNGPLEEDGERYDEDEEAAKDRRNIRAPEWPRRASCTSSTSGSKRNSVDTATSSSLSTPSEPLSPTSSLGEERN
# Sequence (P46976 whole entry partner): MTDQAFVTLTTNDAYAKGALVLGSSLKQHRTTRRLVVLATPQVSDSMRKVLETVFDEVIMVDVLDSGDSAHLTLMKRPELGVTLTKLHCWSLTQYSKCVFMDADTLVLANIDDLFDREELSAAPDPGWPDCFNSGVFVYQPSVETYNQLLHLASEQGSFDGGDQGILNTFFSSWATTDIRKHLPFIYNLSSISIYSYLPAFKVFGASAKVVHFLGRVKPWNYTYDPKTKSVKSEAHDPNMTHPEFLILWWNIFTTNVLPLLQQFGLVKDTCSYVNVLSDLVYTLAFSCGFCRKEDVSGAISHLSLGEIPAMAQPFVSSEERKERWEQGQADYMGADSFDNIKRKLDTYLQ
# Experimental Protocol: GYS1 coupled enzyme assay (PK/LDH)
# Details: hGYS1/GN1 50 nM, UDP-Glucose 0.8 mM, G6P 1 mM; geometric mean of at least 2 runs
Please express pIC50 as -log10 of the molar concentration.

input: Look up pIC50 for this compound: Cn1c(CC(=O)N2C[C@H](F)C[C@H]2C(=O)N[C@@H](c2ccccc2)c2ccc(C3CC3)c(F)n2)n[nH]c1=O [Compound 304]
output: 7.14

* * *

# Measured On: hGYS2 enzyme (recombinant hGYS2/GN1 protein) (Homo sapiens (Human), UniProt P54840)
# Sequence (P54840 whole entry, one chain of several): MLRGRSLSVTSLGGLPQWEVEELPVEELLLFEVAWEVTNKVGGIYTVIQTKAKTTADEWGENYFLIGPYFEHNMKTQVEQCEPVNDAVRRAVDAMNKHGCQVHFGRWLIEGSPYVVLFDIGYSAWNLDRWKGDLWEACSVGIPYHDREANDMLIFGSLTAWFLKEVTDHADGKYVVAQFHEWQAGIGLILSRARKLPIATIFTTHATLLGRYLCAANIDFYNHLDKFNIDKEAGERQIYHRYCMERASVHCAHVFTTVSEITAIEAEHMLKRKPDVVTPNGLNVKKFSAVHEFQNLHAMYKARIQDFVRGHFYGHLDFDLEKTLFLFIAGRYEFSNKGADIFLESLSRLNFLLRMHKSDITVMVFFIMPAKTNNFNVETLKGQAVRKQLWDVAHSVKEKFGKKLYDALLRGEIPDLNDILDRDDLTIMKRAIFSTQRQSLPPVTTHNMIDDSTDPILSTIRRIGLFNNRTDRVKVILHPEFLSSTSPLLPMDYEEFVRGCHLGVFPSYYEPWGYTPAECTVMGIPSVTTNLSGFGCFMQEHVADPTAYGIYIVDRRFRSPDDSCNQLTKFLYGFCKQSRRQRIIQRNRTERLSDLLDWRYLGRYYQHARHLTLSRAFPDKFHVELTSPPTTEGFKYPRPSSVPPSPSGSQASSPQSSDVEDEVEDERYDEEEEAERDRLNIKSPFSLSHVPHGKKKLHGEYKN
# Experimental Protocol: GYS2 coupled enzyme assay (PK/LDH)
# Details: geometric mean of at least 2 assay runs on separate days, read-out: Avg_IC50
Observation Type: IC50

Solved cases (3 shown):
| Molecule | Observation Type | Experimental Result |
| --- | --- | --- |
| Cc1coc(CC(=O)N2C[C@H](F)C[C@H]2C(=O)N[C@@H](c2ccccc2)c2ccc(C(C)C)c(F)n2)n1 [Compound 409] | IC50 | > 100 µM |
| CC(C)c1ccc([C@@H](NC(=O)[C@@H]2C[C@@H](F)CN2C(=O)Cc2cccn3c(=O)[nH]nc23)c2ccccc2)nc1 [Compound 258] | IC50 | > 100 µM |
| CC(=O)NCc1cnnn1CC(=O)N1C[C@H](F)C[C@H]1C(=O)N[C@@H](c1ccccc1)c1ccc(C(C)C)cc1 [Compound 243] | IC50 | > 100 µM |

input: # query: IC50 of entry CC(C)c1c(F)cc([C@@H](NC(=O)[C@@H]2C[C@@H](F)CN2S(=O)(=O)Cc2cnn[nH]2)c2ccccc2)cc1F [Compound 659]
output: 17.5 µM

input: Proceed to O=C(N[C@@H](c1ccccc1)c1ccc(C2CC2)c(F)n1)[C@@H]1C[C@@H](F)CN1C(=O)Cn1ncc(N2CC(F)(F)C2)n1 [Compound 318]
output: > 100 µM

input: Same lookup for CC(C)c1ccc([C@@H](NC(=O)[C@@H]2C[C@@H](F)CN2C(=O)Cc2ccnn2C)c2ccccc2)cc1F [Compound 337] , please.
output: > 100 µM

* * *

The entries below are paired with their reported IC50.
# Measured On: hGYS2 enzyme (recombinant hGYS2/GN1 protein) (Homo sapiens (Human))
# Experimental Protocol: GYS2 coupled enzyme assay (PK/LDH)
# Details: geometric mean of at least 2 assay runs on separate days, read-out: Avg_IC50

| Compound | Measured On | IC50 |
| --- | --- | --- |
| CC(C)c1ccc([C@@H](NC(=O)[C@@H]2C[C@@H](F)CN2C(=O)Cn2ccnn2)c2ccccc2)cc1F [Compound 331] | hGYS2 enzyme (recombinant hGYS2/GN1 protein) (Homo sapiens (Human)) | > 100 µM |
| CCn1c(=O)c(C)cn(CC(=O)N2C[C@H](F)C[C@H]2C(=O)N[C@@H](c2ccccc2)c2ccc(C3CC(F)(F)C3)c(F)n2)c1=O [Compound 501] | hGYS2 enzyme (recombinant hGYS2/GN1 protein) (Homo sapiens (Human)) | > 100 µM |

Now look at this entry.
input: Which IC50 is reported for this compound? CC(C(=O)N1C[C@H](F)C[C@H]1C(=O)N[C@@H](c1ccccc1)c1ccc(C2(C)CC2)c(F)n1)n1cnc2ccccc21 (single isomer, unassigned) [Compound 587]
output: > 100 µM
